Tested on: CCRF-CEM leukemia
EXPERIMENTAL DETAILS: NCI tumour cell line growth inhibition, 48 h
Where a SMILES comes first, the peptide text is derived from it. The star is where a group is joined. Boc = CC(C)(C)OC(=O)*; OBn = c1ccc(CO*)cc1
ASSAY ENDPOINT: TGI

Consider the reported TGI for these compounds:
O=C(O)c1ccc(N/C=C2\C(=O)c3ccccc3OC2O)cc1O (stereo not drawn)
59.6 µg/mL
COC(=O)/C=C/c1cc(O)c2c(c1)[C@H](C(=O)OC)[C@@H](c1ccc(O)c(O)c1)O2
5.18 µM
CC(NC(=O)C(NC(=O)OC(C)(C)C)C(C)C)C(=O)N1CCCC1C(=O)NCC(=O)NC(C(=O)NCC(=O)OCc1ccccc1)C(C)C (stereo not drawn) (Boc-VAPGVG-OBn; configuration not given here)
> 100 µM

INPUT: Which TGI is listed for O=C(NC1CCN(Cc2ccccc2)CC1)c1cc2nc(-c3ccc(Cl)s3)cc(C(F)(F)F)n2n1 ?
OUTPUT: > 100 µM

* * *

Tested on: NCI-H23 lung
EXPERIMENTAL DETAILS: NCI tumour cell line growth inhibition, 48 h
ASSAY ENDPOINT: TGI

CCCCCCCCCCCCSC(=N)N
32.8 µM
CCOC(=O)CNC(=O)C(C)NC(=O)C(NC(=O)CC(c1ncc[nH]1)c1ncc[nH]1)C(C)CC (stereo not given)
> 100 µM
C=CCC(N[C@H](CO)c1ccccc1)c1cn(C(=O)OCC)c2ccccc12 (stereo not given in full)
32 µM

INPUT: Which TGI is listed for O=C1C=C(Br)c2c(Br)sc(Br)c21 ?
OUTPUT: 25.6 µM

INPUT: Which TGI is listed for Cc1sc(/N=C/c2c[nH]c3ccccc23)c(C#N)c1C ?
OUTPUT: > 100 µM

INPUT: Which TGI is listed for CN1CCN(Cc2ccc(NC(=O)c3ccc(C#Cc4c(N)ncc5ccc(F)cc45)cc3)cc2C(F)(F)F)CC1 ?
OUTPUT: 1.89 µM

INPUT: Which TGI is listed for C=C1C(=O)O[C@H]2[C@H]1CC/C(COC(=O)NCCc1c[nH]c3ccc(OC)cc13)=C\CC[C@@]1(C)O[C@@H]21 ?
OUTPUT: 5.84 µM

INPUT: Which TGI is listed for O=C1Cc2c([nH]c3ccc(Br)cc23)-c2ccccc2N1 ?
OUTPUT: > 100 µM

* * *

Test system: UO-31 renal
EXPERIMENTAL DETAILS: NCI tumour cell line growth inhibition, 48 h
ASSAY ENDPOINT: TGI

Consider the reported TGI for these compounds:
O=C(Nc1ccccc1O)c1ccc(Oc2cccc(C(=O)Nc3ccccc3O)c2)cc1
6.39 µM
COc1cc(CC2c3cc(OC)c(OC)cc3CCN2C)c(Oc2cc3c(cc2OC)-c2c(O)c(OC)cc4c2C(C3)N(C)CC4)cc1OC (stereo not drawn)
36.1 µM
N#Cc1c(N2CCCC2)ncn(Cc2ccccc2)c1=O
> 100 µM
NC(N)=NNC(=O)CCCCCCCC(=O)NN=C(N)N
> 100 µM
O=c1c(C=Nc2ccc([N+](=O)[O-])cc2)c(O)n(-c2ccccc2)c(=O)n1-c1ccccc1
> 100 µM

INPUT: Please tell me: TGI of C(=C\c1ccccc1)/C=N/c1nc2cc3sc(/N=C/C=C/c4ccccc4)nc3cc2s1 , system UO-31 renal?
OUTPUT: > 100 µM

INPUT: Please tell me: TGI of CC(=O)OC1(C)C(=O)OC1(C)C(C)=O (stereo not drawn) , system UO-31 renal?
OUTPUT: > 100 µM

INPUT: Please tell me: TGI of COc1ccc2nc3cc(Cl)ccc3c(NCCCNCCC(C)O)c2c1 (stereo not drawn) , system UO-31 renal?
OUTPUT: 3.27 µM

INPUT: Please tell me: TGI of O=C1COc2ccc([N+](=O)[O-])cc2C(=O)C1 , system UO-31 renal?
OUTPUT: > 10 µM

INPUT: Please tell me: TGI of CC(CO)C1C[C@H](O)[C@@]2(C)CC(=O)C=C(CO)[C@@H]2C1 (stereo partly drawn) , system UO-31 renal?
OUTPUT: > 100 µM

INPUT: Please tell me: TGI of CSc1ccc2c3c(n(C[C@H](O)CO)c(=O)c2c1)-c1ccccc1C3=O , system UO-31 renal?
OUTPUT: 8.94 µM

INPUT: Please tell me: TGI of C1CCC(OC2CSC2)OC1 (stereo not drawn) , system UO-31 renal?
OUTPUT: > 100 µM

INPUT: Please tell me: TGI of C=C(c1ccc(C(=O)N(C)c2ccccc2N)cc1)C(C)N1C(=O)[C@H]2CCCN2C(=O)c2ccccc21 (stereo partly drawn) , system UO-31 renal?
OUTPUT: > 100 µM

INPUT: Please tell me: TGI of CCOC(=O)/C=C/C(C(=O)/C=C/c1ccc(O)c(OC)c1)=C(O)\C=C\c1ccc(O)c(OC)c1 , system UO-31 renal?
OUTPUT: 49.1 µM

INPUT: Please tell me: TGI of O=C(O)c1ccc(N/C=C2\C(=O)c3ccccc3OC2O)cc1O (stereo not drawn) , system UO-31 renal?
OUTPUT: 36.4 µg/mL

INPUT: Please tell me: TGI of COc1ccc2c(c1)C(=O)/C(=C/c1ncc([N+](=O)[O-])n1C)O2 , system UO-31 renal?
OUTPUT: 2.53 µM

INPUT: Please tell me: TGI of C=CCC(N[C@H](CO)c1ccccc1)c1cn(C(=O)OCC)c2ccccc12 (stereo partly drawn) , system UO-31 renal?
OUTPUT: 32.5 µM

INPUT: Please tell me: TGI of O=C(Nc1ccc(Cl)cc1)c1cc(-c2ccc(Cl)cc2)c2sc(=O)[nH]c2n1 , system UO-31 renal?
OUTPUT: 5.36 µM

INPUT: Please tell me: TGI of CC(C)c1ccc(/C=C2\CSCC3=C2NC(=S)NC3c2ccc(C(C)C)cc2)cc1 (stereo not drawn) , system UO-31 renal?
OUTPUT: > 100 µM

INPUT: Please tell me: TGI of COc1ccccc1/C=N\N=C(N/N=C/c1ccccc1OC)N/N=C/c1ccccc1OC , system UO-31 renal?
OUTPUT: 7.25 µM

INPUT: Please tell me: TGI of CCOC(=O)CNC(=O)C(C)NC(=O)C(NC(=O)CC(c1ncc[nH]1)c1ncc[nH]1)C(C)CC (stereo not drawn) , system UO-31 renal?
OUTPUT: > 100 µM

INPUT: Please tell me: TGI of CCSC1=C(C)N(C=NC(C)(C)C)CC1 , system UO-31 renal?
OUTPUT: > 100 µM

INPUT: Please tell me: TGI of COC(OC)C1OC(CO)C(n2ccc(N)nc2=O)C1O (stereo not drawn) , system UO-31 renal?
OUTPUT: > 100 µM

* * *

Tested on: RPMI-8226 leukemia
EXPERIMENTAL DETAILS: NCI tumour cell line growth inhibition, 48 h; in the data active = GI50 below about 0.43 µM; inactive = the rest
Hello, when you answer, please use one of the following outcomes: Yes (active), No (inactive)

INPUT: # lookup: test call for O=C(N/N=C/c1ccc([N+](=O)[O-])cc1)c1ccc2nc(-c3ccc(Cl)cc3)[nH]c2c1
OUTPUT: No

* * *

Test system: IGROV1 ovarian
EXPERIMENTAL DETAILS: NCI tumour cell line growth inhibition, 48 h; in the data active = GI50 below about 0.43 µM; inactive = the rest
Hello, when you answer, please use one of the following outcomes: active, inactive

O=C(Nc1ccccc1O)c1ccc(Oc2cccc(C(=O)Nc3ccccc3O)c2)cc1
inactive
O=C(O)c1cc2cc(OCc3ccccc3)c(OCc3ccccc3)cc2[nH]1
inactive

INPUT: # lookup: test call for COc1cccc2c1C(=O)c1c(O)c3c(c(O)c1C2=O)C[C@@](O)(C(=O)CO)C[C@@H]3OC1C[C@H](N)[C@H](O)[C@H](C)O1 (stereo not given in full)
OUTPUT: active

INPUT: # lookup: test call for O=[Se](=O)c1ccccc1.O=[Se](=O)c1ccccc1.[Cu]
OUTPUT: inactive

INPUT: # lookup: test call for COC(=O)[C@]12CC[C@@H](C)[C@H](C)[C@@H]1C1=CC[C@@H]3[C@@]4(C)C=C(O)C(=O)[C@@]5(C)COC(=C54)C[C@@]3(C)[C@]1(C)CC2
OUTPUT: inactive

INPUT: # lookup: test call for C=C(c1ccc(C(=O)N(C)c2ccccc2N)cc1)C(C)N1C(=O)[C@H]2CCCN2C(=O)c2ccccc21 (stereo not given in full)
OUTPUT: inactive

* * *

Reported TGI values for a set of compounds
Tested on: SNB-75 CNS
EXPERIMENTAL DETAILS: NCI tumour cell line growth inhibition, 48 h

Consider the reported TGI for these compounds:
CC(C)(C)C(=O)ON1N=NC2C3CC(OCc4ccccc4)(OCc4ccccc4)C(O3)C21 (centres undefined)
69.5 µM
COc1ccc(/C=C\c2cc(OC)c(OC)c(OC)c2)cc1OC(=O)CCC(=O)O
> 100 µM
CCCCCCCCCCCCCCCCCCNc1ccn(C2OC(COP(=O)(O)OCC3OC(n4cc(C)c(=O)[nH]c4=O)CC3N=[N+]=[N-])C(O)C2O)c(=O)n1 (centres undefined)
58.5 µM

INPUT: Please tell me: TGI of C=C(C)C(=O)[C@@]12C(=O)[C@@H](C)CC[C@H]1[C@H](C)C[C@@H]2C=C(C)C , system SNB-75 CNS?
OUTPUT: > 100 µM
